Assay: glucagon-like peptide 1 release enhancers, primary assay, NCI-H716 cell line, NPC library (AID 1117341); further: reference of the scale not given here
Conditions: NCI-H716 cells, at 10 µM
The source made the active and inactive calls.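 How the source made its calls: active means compound raises GLP1 secretion from the human gut endocrine cells, with no numeric limit stated; inactive means the rest.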
Thanks in advance; please answer with one of these: active, inactive

- Cn1c(=O)c2c(ncn2CC(=O)O)n(C)c1=O: inactive
- C[C@]12CC[C@@H]3c4ccc(O)cc4C[C@@H](CCCCCCCCCS(=O)CCCC(F)(F)C(F)(F)F)[C@H]3[C@@H]1CC[C@@H]2O (stereo partly specified): inactive
- O=S(=O)(c1cccc2cnccc12)N1CCCNCC1: inactive
- CCN(CC)C(=O)c1cccnc1: inactive
- CC[C@H](c1ccc(O)cc1)[C@@H](CC)c1ccc(O)cc1: active

I would be grateful if you could indicate the recorded call for O=C1NCCN1CCN1CCC(c2cn(-c3ccc(F)cc3)c3ccc(Cl)cc23)CC1 .
inactive

Check Nc1ccc2cc3ccc(N)cc3nc2c1 too.
inactive

Check CCCCC[C@@H](O)CC[C@H]1[C@@H]2Cc3cccc(OCC(=O)O)c3C[C@@H]2C[C@@H]1O too.
inactive

Check CC1CC(OC(=O)c2ccccc2O)CC(C)(C)C1 (stereo unspecified) too.
inactive

Each recorded value in this set is attributed to PubChem BioAssay.
